Target: Cytochrome P450 2D6 (Homo sapiens) (UniProt P10635)
Sequence (P10635 whole entry, looked up): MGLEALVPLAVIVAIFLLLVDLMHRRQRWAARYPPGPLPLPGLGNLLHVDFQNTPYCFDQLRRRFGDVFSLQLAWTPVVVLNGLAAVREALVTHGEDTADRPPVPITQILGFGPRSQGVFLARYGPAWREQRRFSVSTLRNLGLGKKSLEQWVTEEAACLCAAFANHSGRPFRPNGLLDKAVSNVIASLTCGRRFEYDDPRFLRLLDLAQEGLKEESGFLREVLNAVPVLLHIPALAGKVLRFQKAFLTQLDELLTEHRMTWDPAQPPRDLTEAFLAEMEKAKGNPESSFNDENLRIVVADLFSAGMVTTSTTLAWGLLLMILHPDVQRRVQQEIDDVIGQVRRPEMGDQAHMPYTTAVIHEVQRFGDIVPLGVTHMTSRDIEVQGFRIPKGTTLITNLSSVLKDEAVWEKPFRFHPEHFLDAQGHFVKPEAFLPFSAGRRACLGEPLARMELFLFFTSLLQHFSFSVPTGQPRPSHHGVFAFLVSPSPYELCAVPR
Assay: Cytochrome P450 Family 2 Subfamily D Member 6 (CYP2D6) small molecule antagonists: luciferase reporter qHTS assay (AID 1671196); also: nearly all actives have a fitted effect of over 50% in size
Settings: P450-Glo CYP2D6 enzyme assay, luciferin luminescence, 1 h; series mostly up to 115 µM
Excerpt: U.S. Tox21 Program National Center for Advancing Translational Sciences [NCATS] U.S. Environmental Protection Agency [EPA] National Institutes of Environmental Health Sciences [NIEHS] National Toxicology Program [NTP] U.S. Food and Drug Administration [FDA] […] The luciferin products formed are detected with a luciferin detection reagent, and the amount of light produced is proportional to CYP activity. […]
Results filed as inconclusive are left out. Activity calls are given as the source filed them. Calls follow the shape of the dose curve; as a rule, active = well fitted inhibition curve with a large enough effect in the repeat runs; inconclusive = weak or mixed curves; inactive = no such curve, though single readings can be large or run the other way.
Labels: class 1 (active), class 0 (inactive)

- CC1(C)Cc2cccc(O)c2O1: class 0
- N#CCCCCC#N: class 0
- CCOP(=S)(OCC)OP(=S)(OCC)OCC: class 0
- O=[N+]([O-])/N=C1\NCCN1Cc1ccc(Cl)nc1: class 0
- Clc1cccc(C(Cl)(Cl)Cl)n1: class 0
- CCC/C=N/O: class 0
- CC(C)(C#N)N=NC(C)(C)C#N: class 0
- Cc1cc(Cl)ccc1N=CN(C)C: class 1
- CC1CC(=O)O1 (centres undefined): class 0
- CC(C)(c1ccc(OCC2CO2)cc1)c1ccc(OCC2CO2)cc1 (centres undefined): class 0
- CCOP(=S)(OCC)SCSC(C)(C)C: class 0
- C=CC(Cl)CCl (centres undefined): class 0
- CN(C)c1ccccc1: class 0
- S=c1[nH]c2ccccc2[nH]1: class 0
- CSc1nc(NC(C)C)nc(NC(C)C)n1: class 0
- N#Cc1cccnc1: class 0
- ClC(Cl)=C(Cl)C(Cl)=C(Cl)Cl: class 0
- O=C1CCCO1: class 0
- ClC(Cl)(Cl)Br: class 0
- CC(C)COC(=O)c1ccccc1C(=O)OCC(C)C: class 0
- Oc1ccc(Cl)cc1Cl: class 0
- O=P(OCCCl)(OCCCl)OCCCl: class 0
- CCOP(=O)(OCC)OCC: class 0
- CN(C)c1nc(=O)n(C2CCCCC2)c(=O)n1C: class 0
- CCOC(=O)c1ccccc1N: class 0
- CC(C)Nc1nc(Cl)nc(NC(C)C)n1: class 0
- c1ccc2c(c1)Nc1ccccc1S2: class 0
- C[N+](C)(C)C: class 0
- CC(O)CN(CC(C)O)CC(C)O (centres undefined): class 0
- O=C(O)CF: class 0
- NC(=O)CN1CCCC1=O: class 0
- ClC(Cl)(Cl)c1ccccc1: class 0
- Cc1cccc(N=Nc2ccc(N(C)C)cc2)c1: class 0
- OCCOCCO: class 0
- CS(=O)(=O)NC(=O)c1cc(Oc2ccc(C(F)(F)F)cc2Cl)ccc1[N+](=O)[O-]: class 0
- Cc1ccc([N+](=O)[O-])cc1: class 0
- CCC1(c2ccc(N)cc2)CCC(=O)NC1=O (centres undefined): class 0
- COC(=O)Nc1nc2ccccc2[nH]1: class 0
- CC1(C)C(C(=O)OC(C#N)c2cccc(Oc3ccccc3)c2)C1(C)C (centres undefined): class 0

----------
Target: Acetylcholinesterase (Homo sapiens)
Test: Acetylcholinesterase (AChE) small molecule antagonists: enzyme-based qHTS assay with human liver microsomes (AID 1347399); also: nearly all actives have a fitted effect of over 60% in size
Settings: qHTS inhibition; series mostly up to 115 µM
Active and inactive are the calls of the source. Calls follow the shape of the full dose curve.
readout: outcome

- N#CCCCCC#N: inactive
- Nc1ncn[nH]1: inactive
- N#Cc1cccnc1: inactive
- CCN(CC)C(=O)C(C)Oc1cccc2ccccc12 (stereo not given): inactive
- O=C(O)c1nn(Cc2ccc(Cl)cc2Cl)c2ccccc12: inactive
- CCCCOC(=O)COC(=O)c1ccccc1C(=O)OCCCC: inactive
- ClC(Cl)(Cl)c1ccccc1: inactive
- COP(=S)(OC)Oc1ccc(Sc2ccc(OP(=S)(OC)OC)cc2)cc1: inactive
- CN(C)P(=O)(N(C)C)N(C)C: inactive
- CCNc1nc(Cl)nc(NC(C)(C)C#N)n1: inactive
- O=[N+]([O-])c1ccc(Cl)c([N+](=O)[O-])c1: inactive
- CCCCOCCOC(C)=O: inactive
- CCC/C=N/O: inactive
- CC1CC(=O)O1 (stereo not given): inactive
- CCCCC(C#N)(Cn1cncn1)c1ccc(Cl)cc1 (stereo not given): inactive
